Cited source for all entries: ChEMBL document CHEMBL1909046

assay_target: Thromboxane-A synthase (Homo sapiens, UniProt P24557);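 also: enzyme inhibition assay with PGH2 supplied as substrate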; also: in other assays of this panel Not Active means under 50% inhibition at 10 µM
Sequence (P24557 whole entry): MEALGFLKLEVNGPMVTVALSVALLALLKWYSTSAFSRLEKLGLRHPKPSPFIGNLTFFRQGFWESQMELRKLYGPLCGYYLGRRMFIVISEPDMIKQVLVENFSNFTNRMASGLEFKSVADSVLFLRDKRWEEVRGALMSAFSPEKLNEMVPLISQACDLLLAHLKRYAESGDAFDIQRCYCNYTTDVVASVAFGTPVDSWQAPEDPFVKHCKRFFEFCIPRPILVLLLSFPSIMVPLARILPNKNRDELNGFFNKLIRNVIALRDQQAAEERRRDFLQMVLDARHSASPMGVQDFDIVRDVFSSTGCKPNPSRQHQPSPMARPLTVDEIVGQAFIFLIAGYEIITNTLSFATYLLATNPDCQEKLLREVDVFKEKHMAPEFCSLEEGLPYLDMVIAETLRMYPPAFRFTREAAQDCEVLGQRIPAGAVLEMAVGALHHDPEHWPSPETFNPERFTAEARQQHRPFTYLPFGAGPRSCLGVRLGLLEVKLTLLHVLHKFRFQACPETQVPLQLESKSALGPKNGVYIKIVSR
experiment_description: biochemical
Assay type: tissue-based, Platelet
reported_conditions: platelet
property_name: IC50

INSERT INTO assay_data (compound, property_name, observed) VALUES
  ('CC[C@H]1OC(=O)[C@H](C)[C@@H](O[C@H]2C[C@@](C)(OC)[C@@H](O)[C@H](C)O2)[C@H](C)[C@@H](O[C@@H]2O[C@H](C)C[C@H](N(C)C)[C@H]2O)[C@](C)(O)C[C@@H](C)/C(=N\OCOCCOC)[C@H](C)[C@@H](O)[C@]1(C)O [ROXITHROMYCIN]', 'IC50', 'Not Active'),
  ('CN1C(C(=O)Nc2ccccn2)=C(O)c2ccccc2S1(=O)=O [PIROXICAM]', 'IC50', 'Not Active'),
  ('CN(N=O)C(=O)N[C@@H](C=O)[C@@H](O)[C@H](O)[C@H](O)CO [STREPTOZOCIN]', 'IC50', 'Not Active');

====

assay_target: Alpha-1D adrenergic receptor (Homo sapiens, UniProt P25100); also: in other assays of this panel Not Active means under 50% inhibition at 10 µM
Sequence (P25100 whole entry): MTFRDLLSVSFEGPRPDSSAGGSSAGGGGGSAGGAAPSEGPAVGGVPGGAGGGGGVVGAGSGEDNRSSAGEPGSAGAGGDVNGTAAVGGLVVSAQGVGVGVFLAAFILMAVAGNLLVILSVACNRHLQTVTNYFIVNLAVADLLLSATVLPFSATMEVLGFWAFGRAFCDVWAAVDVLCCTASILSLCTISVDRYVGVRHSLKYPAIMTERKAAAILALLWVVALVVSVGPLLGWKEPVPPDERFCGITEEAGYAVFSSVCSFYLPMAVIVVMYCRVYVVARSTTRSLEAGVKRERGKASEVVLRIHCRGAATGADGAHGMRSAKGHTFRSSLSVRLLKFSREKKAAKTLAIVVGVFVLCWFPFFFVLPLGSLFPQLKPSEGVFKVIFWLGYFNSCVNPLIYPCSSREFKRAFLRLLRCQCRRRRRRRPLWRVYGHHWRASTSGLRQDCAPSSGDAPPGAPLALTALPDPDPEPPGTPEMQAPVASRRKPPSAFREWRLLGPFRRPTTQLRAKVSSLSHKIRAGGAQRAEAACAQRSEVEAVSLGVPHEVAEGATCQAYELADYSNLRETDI
Assay type: cell membranes, HEK293, Membrane
reported_conditions: read-out: Ki
pKi: −log10 of the molar value.
Each item that follows carries a reported pKi.
property_name: pKi

INSERT INTO results (compound, assay_target, observed) VALUES
  ('CN1C[C@H](C(=O)N[C@]2(C)O[C@@]3(O)[C@@H]4CCCN4C(=O)[C@H](Cc4ccccc4)N3C2=O)C=C2c3cccc4[nH]cc(c34)C[C@H]21', 'Alpha-1D adrenergic receptor (Homo sapiens, UniProt P25100)', 7.62),
  ('CN(C)CCCC1(c2ccc(F)cc2)OCc2cc(C#N)ccc21 (stereo not given)', 'Alpha-1D adrenergic receptor (Homo sapiens, UniProt P25100)', 5.79),
  ('Cc1ccccc1N1CCN(CCc2nnc3n2CCCC3)CC1', 'Alpha-1D adrenergic receptor (Homo sapiens, UniProt P25100)', 8.39),
  ('CN1CCN2c3ccccc3Cc3ccccc3C2C1 (stereo not given)', 'Alpha-1D adrenergic receptor (Homo sapiens, UniProt P25100)', 7.39),
  ('Clc1ccccc1C(c1ccccc1)(c1ccccc1)n1ccnc1', 'Alpha-1D adrenergic receptor (Homo sapiens, UniProt P25100)', 5.13),
  ('CSc1ccc2c(c1)N(CCC1CCCCN1C)c1ccccc1S2 (stereo not given)', 'Alpha-1D adrenergic receptor (Homo sapiens, UniProt P25100)', 8.54),
  ('CC(CCc1ccccc1)NCC(O)c1ccc(O)c(C(N)=O)c1 (stereo not given)', 'Alpha-1D adrenergic receptor (Homo sapiens, UniProt P25100)', 6.59),
  ('COc1ccc(CCN2CCC(Nc3nc4ccccc4n3Cc3ccc(F)cc3)CC2)cc1', 'Alpha-1D adrenergic receptor (Homo sapiens, UniProt P25100)', 6.42),
  ('CN(C)CCCN1c2ccccc2CCc2ccc(Cl)cc21', 'Alpha-1D adrenergic receptor (Homo sapiens, UniProt P25100)', 7.06),
  ('CNCCC=C1c2ccccc2CCc2ccccc21', 'Alpha-1D adrenergic receptor (Homo sapiens, UniProt P25100)', 6.87);

====

experiment_description: DRUGMATRIX: GABAA, Flunitrazepam, Central radioligand binding (ligand: [3H] Flunitrazepam)
Format: cell membranes, Rattus norvegicus, Wistar, Brain, Membrane
reported_conditions: Not Active = under 50% inhibition at 10 µM
property_name: IC50

INSERT INTO measurements (compound, property_name, observed) VALUES
  ('COc1ccc(C(CN(C)C)C2(O)CCCCC2)cc1 (stereo unspecified)', 'IC50', 'Not Active'),
  ('O=c1cc(-c2ccccc2)oc2c1ccc1ccccc12', 'IC50', 'Not Active'),
  ('CN(C)[C@@H]1C(O)=C(C(N)=O)C(=O)[C@@]2(O)C(O)=C3C(=O)c4c(O)cccc4[C@@](C)(O)[C@H]3C[C@@H]12', 'IC50', 'Not Active'),
  ('CC(C)(C)NCC(O)c1ccc(O)c(CO)c1 (stereo unspecified)', 'IC50', 'Not Active'),
  ('CCCSc1ccc2nc(NC(=O)OC)[nH]c2c1', 'IC50', 'Not Active'),
  ('Cc1ccccc1N1CCN(CCc2nnc3n2CCCC3)CC1', 'IC50', 'Not Active'),
  ('Cc1cc(NS(=O)(=O)c2ccc(N)cc2)no1', 'IC50', 'Not Active'),
  ('Fc1ccc([C@@H]2CCNC[C@H]2COc2ccc3c(c2)OCO3)cc1', 'IC50', 'Not Active'),
  ('Brc1ccccc1', 'IC50', 'Not Active'),
  ('C=C1[C@@H]2CCC3[C@@](CC[C@@H]4[C@H](C(=O)O)C[C@@H](O[C@@H]5O[C@H](CO)[C@@H](OS(=O)(=O)[O-])[C@H](OS(=O)(=O)[O-])[C@H]5OC(=O)CC(C)C)C[C@@]34C)(C2)[C@@H]1O.[K+].[K+] (stereo partly specified) [ATRACTYLOSIDE]', 'IC50', 'Not Active'),
  ('CC(=O)[C@@]1(O)CC[C@H]2[C@@H]3C[C@H](C)C4=CC(=O)C=C[C@]4(C)[C@@]3(F)[C@@H](O)C[C@@]21C', 'IC50', 'Not Active'),
  ('C=C(C)[C@@H]1[C@H]2OC(=O)[C@@H]1[C@]1(O)C[C@H]3O[C@]34C(=O)O[C@H]2[C@]14C', 'IC50', 'Not Active'),
  ('Nc1nnc(-c2cccc(Cl)c2Cl)c(N)n1', 'IC50', 'Not Active'),
  ('C[C@]12CCC(=O)C=C1CC[C@@H]1[C@@H]2C(=O)C[C@@]2(C)[C@H]1CC[C@]2(O)C(=O)CO', 'IC50', 'Not Active'),
  ('COC1=CC(=O)C[C@@H](C)[C@]12Oc1c(Cl)c(OC)cc(OC)c1C2=O', 'IC50', 'Not Active'),
  ('CC(=O)CCCCn1c(=O)c2c(ncn2C)n(C)c1=O', 'IC50', 'Not Active');
